assayDetails: Effect on quorum sensing-mediated genetic competence in Bacillus subtilis expressing srfA-lacZ fusion assessed as concentration required to show same activity at EC50 of ComXRO-E-2 pheromone after 5 hrs by beta-galactosidase assay
*1 amine or outer side, *2 acyl side, *3 side chain or, on linkers, in order; H or OH if unused. Where a SMILES comes first, the peptide text is derived from it. [ ]: non-standard residue; d: D form. X4 = CC(C)=CCC/C(C)=C/C[C@]12C[C@@H](C(=O)[*:2])N([*:1])[C@H]1Nc1ccccc12
Give measured EC50 for each item. Keep answers brief.

molecule	observationType	reportedMeasurement
COC(=O)[C@@H]1C[C@]2(C/C=C(\C)CCC=C(C)C)c3ccccc3N[C@@H]2N1C(=O)[C@H](Cc1ccccc1)NC(C)=O	EC50	> 300 nM

Report EC50 for every entry below.
1. CC(C)=CCC/C(C)=C/C[C@]12C[C@@H](C(=O)N[C@@H](C)C(=O)O)N(C(=O)[C@@H](N)Cc3cc4ccccc4[nH]3)[C@H]1Nc1ccccc12
2. CC[C@H](C)[C@H](NC(=O)CN)C(=O)N[C@@H](Cc1ccccc1)C(=O)N1[C@H]2Nc3ccccc3[C@@]2(C/C=C(\C)CCC=C(C)C)C[C@H]1C(=O)N[C@@H](CCC(=O)O)C(=O)N[C@@H](CCC(N)=O)C(=O)O (H-GIF[X4]EQ-OH)

["> 300 nM", "1 nM"]
